# Test system: Clostridium perfringens
# protocolDescription: Antimicrobial activity against Clostridium perfringens by agar dilution method
# Format: functional
measuredEndpoint: log10(MIC50) (log10 of the value in µg/mL)
Hey, these are logged values: log10 of MIC50, µg/mL being the unit before logging.

Worked cases, log10(MIC50) given:
# compound, log10(MIC50)
records = [
    ("CC(=O)NC[C@H]1CN(c2ccc(N3CCOCC3)c(F)c2)C(=O)O1 [LINEZOLID]", 0.30),
    ("CCC[C@@H]1C[C@@H](C(=O)N[C@@H]([C@H]2O[C@H](SC)[C@H](O)[C@@H](O)[C@H]2O)[C@H](C)Cl)N(C)C1 [CLINDAMYCIN]", -0.60),
    ("CN[C@H](CC(C)C)C(=O)N[C@H]1C(=O)N[C@@H](CC(N)=O)C(=O)N[C@H]2C(=O)N[C@H]3C(=O)N[C@H](C(=O)N[C@H](C(=O)O)c4cc(O)cc(O)c4-c4cc3ccc4O)[C@H](O)c3ccc(c(Cl)c3)Oc3cc2cc(c3O[C@@H]2O[C@H](CO)[C@@H](O)[C@H](O)[C@H]2O[C@H]2C[C@](C)(N)[C@H](O)[C@H](C)O2)Oc2ccc(cc2Cl)[C@H]1O [VANCOMYCIN]", 0.00),
]

Batch of 6 compounds: report log10(MIC50) for each.
1. C[C@@H](O)[C@H]1C(=O)N2C(C(=O)O)=C(S[C@@H]3CN[C@H](C(=O)Nc4cccc(C(=O)O)c4)C3)[C@H](C)[C@H]12
2. CO[C@@]1(NC(=O)Cc2cccs2)C(=O)N2C(C(=O)O)=C(COC(N)=O)CS[C@@H]21 [CEFOXITIN]
3. Cc1ncc([N+](=O)[O-])n1CCO [METRONIDAZOLE]
4. C[C@@H](O)[C@H]1C(=O)N2C(C(=O)O)=C(SCCNC=N)C[C@H]12 [IMIPENEM ANHYDROUS]
5. C[C@@H](O)[C@H]1C(=O)N2C(C(=O)O)=C(S[C@@H]3CN[C@H](CNS(N)(=O)=O)C3)[C@H](C)[C@H]12 [DORIPENEM]
6. C[C@@H](O)[C@H]1C(=O)N2C(C(=O)O)=C(S[C@@H]3CN[C@H](C(=O)N(C)C)C3)[C@H](C)[C@H]12 [MEROPENEM]

Completion:
[-1.22, 0.00, 0.30, -0.30, -1.22, -1.22]

###

# System: [Clostridium] innocuum
# protocolDescription: Antimicrobial activity against Clostridium innocuum by agar dilution method
# Format: functional
measuredEndpoint: MIC90
Note: state the figure and append the unit.

Worked cases, MIC90 given:
# compound, MIC90
measured = [
    ("C[C@@H](O)[C@H]1C(=O)N2C(C(=O)O)=C(SCCNC=N)C[C@H]12 [IMIPENEM ANHYDROUS]", "2 µg/mL"),
    ("CCC[C@@H]1C[C@@H](C(=O)N[C@@H]([C@H]2O[C@H](SC)[C@H](O)[C@@H](O)[C@H]2O)[C@H](C)Cl)N(C)C1 [CLINDAMYCIN]", "32 µg/mL"),
    ("C[C@@H](O)[C@H]1C(=O)N2C(C(=O)O)=C(S[C@@H]3CN[C@H](C(=O)N(C)C)C3)[C@H](C)[C@H]12 [MEROPENEM]", "2 µg/mL"),
    ("CN[C@H](CC(C)C)C(=O)N[C@H]1C(=O)N[C@@H](CC(N)=O)C(=O)N[C@H]2C(=O)N[C@H]3C(=O)N[C@H](C(=O)N[C@H](C(=O)O)c4cc(O)cc(O)c4-c4cc3ccc4O)[C@H](O)c3ccc(c(Cl)c3)Oc3cc2cc(c3O[C@@H]2O[C@H](CO)[C@@H](O)[C@H](O)[C@H]2O[C@H]2C[C@](C)(N)[C@H](O)[C@H](C)O2)Oc2ccc(cc2Cl)[C@H]1O [VANCOMYCIN]", "16 µg/mL"),
]

Kindly consider the entry below.
Prompt: Jot down MIC90 ([Clostridium] innocuum) of Cc1ncc([N+](=O)[O-])n1CCO [METRONIDAZOLE] .
Completion: 2 µg/mL

###

# Test system: Cutibacterium acnes
# protocolDescription: Antimicrobial activity against Propionibacterium acnes by agar dilution method
# Format: functional
measuredEndpoint: MIC
Note: state the figure and append the unit.

# molecule, result
data = [
    ("C[C@@H](O)[C@H]1C(=O)N2C(C(=O)O)=C(SCCNC=N)C[C@H]12 [IMIPENEM ANHYDROUS]", "0.06 µg/mL"),
]

Kindly consider the entry below.
Prompt: Please report MIC for the following molecule: CN[C@H](CC(C)C)C(=O)N[C@H]1C(=O)N[C@@H](CC(N)=O)C(=O)N[C@H]2C(=O)N[C@H]3C(=O)N[C@H](C(=O)N[C@H](C(=O)O)c4cc(O)cc(O)c4-c4cc3ccc4O)[C@H](O)c3ccc(c(Cl)c3)Oc3cc2cc(c3O[C@@H]2O[C@H](CO)[C@@H](O)[C@H](O)[C@H]2O[C@H]2C[C@](C)(N)[C@H](O)[C@H](C)O2)Oc2ccc(cc2Cl)[C@H]1O [VANCOMYCIN]
Completion: 1 µg/mL

###

# System: Finegoldia magna
# protocolDescription: Antimicrobial activity against Finegoldia magna by agar dilution method
# Type: functional
Please respond with reported log10 MIC90 for every item in the list.
Hey, these are logged values: log10 of MIC90, µg/mL being the unit before logging.

Worked cases, log10 MIC90 given:
# compound, readoutNumber
data = [
    ("CC(=O)NC[C@H]1CN(c2ccc(N3CCOCC3)c(F)c2)C(=O)O1 [LINEZOLID]", 0.30),
    ("Cc1ncc([N+](=O)[O-])n1CCO [METRONIDAZOLE]", -0.30),
    ("C[C@@H](O)[C@H]1C(=O)N2C(C(=O)O)=C(S[C@@H]3CN[C@H](C(=O)N(C)C)C3)[C@H](C)[C@H]12 [MEROPENEM]", -0.90),
    ("C[C@@H](O)[C@H]1C(=O)N2C(C(=O)O)=C(S[C@@H]3CN[C@H](CNS(N)(=O)=O)C3)[C@H](C)[C@H]12 [DORIPENEM]", -0.90),
    ("C[C@@H](O)[C@H]1C(=O)N2C(C(=O)O)=C(S[C@@H]3CN[C@H](C(=O)Nc4cccc(C(=O)O)c4)C3)[C@H](C)[C@H]12", -0.90),
    ("CCC[C@@H]1C[C@@H](C(=O)N[C@@H]([C@H]2O[C@H](SC)[C@H](O)[C@@H](O)[C@H]2O)[C@H](C)Cl)N(C)C1 [CLINDAMYCIN]", 1.51),
    ("C[C@@H](O)[C@H]1C(=O)N2C(C(=O)O)=C(SCCNC=N)C[C@H]12 [IMIPENEM ANHYDROUS]", -0.60),
    ("CN[C@H](CC(C)C)C(=O)N[C@H]1C(=O)N[C@@H](CC(N)=O)C(=O)N[C@H]2C(=O)N[C@H]3C(=O)N[C@H](C(=O)N[C@H](C(=O)O)c4cc(O)cc(O)c4-c4cc3ccc4O)[C@H](O)c3ccc(c(Cl)c3)Oc3cc2cc(c3O[C@@H]2O[C@H](CO)[C@@H](O)[C@H](O)[C@H]2O[C@H]2C[C@](C)(N)[C@H](O)[C@H](C)O2)Oc2ccc(cc2Cl)[C@H]1O [VANCOMYCIN]", 0.00),
]

Kindly consider the entry below.
Prompt: Jot down log10 MIC90 (Finegoldia magna) of CO[C@@]1(NC(=O)Cc2cccs2)C(=O)N2C(C(=O)O)=C(COC(N)=O)CS[C@@H]21 [CEFOXITIN] .
Completion: 0.00

###

# Test system: Finegoldia magna
# protocolDescription: Antimicrobial activity against Finegoldia magna by agar dilution method
# Type: functional
measuredEndpoint: MIC50
Note: state the figure and append the unit.

Worked cases, MIC50 given:
# compound, MIC50
records = [
    ("CC(=O)NC[C@H]1CN(c2ccc(N3CCOCC3)c(F)c2)C(=O)O1 [LINEZOLID]", "2 µg/mL"),
    ("CO[C@@]1(NC(=O)Cc2cccs2)C(=O)N2C(C(=O)O)=C(COC(N)=O)CS[C@@H]21 [CEFOXITIN]", "1 µg/mL"),
    ("CCC[C@@H]1C[C@@H](C(=O)N[C@@H]([C@H]2O[C@H](SC)[C@H](O)[C@@H](O)[C@H]2O)[C@H](C)Cl)N(C)C1 [CLINDAMYCIN]", "0.5 µg/mL"),
    ("Cc1ncc([N+](=O)[O-])n1CCO [METRONIDAZOLE]", "0.5 µg/mL"),
    ("CN[C@H](CC(C)C)C(=O)N[C@H]1C(=O)N[C@@H](CC(N)=O)C(=O)N[C@H]2C(=O)N[C@H]3C(=O)N[C@H](C(=O)N[C@H](C(=O)O)c4cc(O)cc(O)c4-c4cc3ccc4O)[C@H](O)c3ccc(c(Cl)c3)Oc3cc2cc(c3O[C@@H]2O[C@H](CO)[C@@H](O)[C@H](O)[C@H]2O[C@H]2C[C@](C)(N)[C@H](O)[C@H](C)O2)Oc2ccc(cc2Cl)[C@H]1O [VANCOMYCIN]", "1 µg/mL"),
    ("C[C@@H](O)[C@H]1C(=O)N2C(C(=O)O)=C(SCCNC=N)C[C@H]12 [IMIPENEM ANHYDROUS]", "0.25 µg/mL"),
    ("C[C@@H](O)[C@H]1C(=O)N2C(C(=O)O)=C(S[C@@H]3CN[C@H](C(=O)Nc4cccc(C(=O)O)c4)C3)[C@H](C)[C@H]12", "0.125 µg/mL"),
    ("C[C@@H](O)[C@H]1C(=O)N2C(C(=O)O)=C(S[C@@H]3CN[C@H](C(=O)N(C)C)C3)[C@H](C)[C@H]12 [MEROPENEM]", "0.125 µg/mL"),
]

Kindly consider the entry below.
Prompt: Please report MIC50 for the following compound: C[C@@H](O)[C@H]1C(=O)N2C(C(=O)O)=C(S[C@@H]3CN[C@H](CNS(N)(=O)=O)C3)[C@H](C)[C@H]12 [DORIPENEM]
Completion: 0.125 µg/mL
